Below, each entry is listed with its recorded Test G rating (% disease control).
- Test system: Erysiphe graminis f sp. tritici
- ASSAY_INFO: Test G: wheat powdery mildew, preventive spray on wheat seedlings
- SETUP_CONDITIONS: 10 ppm; wheat powdery mildew; 100 = 100% disease control, 0 = no control
Report only the number, with the unit % understood.

CC(C)(C)C(O)(Cn1cncn1)C1=NOC(COc2ccc(-n3cc(Cl)cn3)cc2)C1 (centres unmarked) | 100
OC(Cn1cncn1)(C1=NOC(c2ccc(Cl)cc2)C1)c1ccc(C(F)(F)F)cc1 (single isomer, unassigned) [Compound 106] | 89
CC#CC(O)(Cn1cncn1)C1=NOC(c2ccc(Cl)cc2)C1 (centres unmarked) [Compound 103] | 92

Q: Any idea what Test G rating (% disease control) was measured for OC(Cn1cncn1)(C1=NOC(c2cccc(Oc3ccccc3)c2)C1)c1ccc(Cl)cc1 (single isomer, unassigned) [Compound 176] ?
Ans: 100

Q: Any idea what Test G rating (% disease control) was measured for CC(C)(C)C(O)(Cn1cncn1)C1=NOC(COc2ccc(-n3cccn3)cc2)C1 (single isomer, unassigned) [Compound 28] ?
Ans: 99

Q: Any idea what Test G rating (% disease control) was measured for CC(C)(C)C(O)(Cn1cncn1)C1=NOC(CO[Si](C)(C)C(C)(C)C)C1 (single isomer, unassigned) [Compound 9] ?
Ans: 64

----------
- Test system: Zymoseptoria tritici
- ASSAY_INFO: Test E: wheat leaf blotch, preventive spray on wheat seedlings
- SETUP_CONDITIONS: 10 ppm; wheat leaf blotch; 100 = 100% disease control, 0 = no control
TEST_READOUT: Test E rating (% disease control) (%)
Report only the number, with the unit % understood.

Recorded Test E rating (% disease control), per entry:
CC(C)(C)C(O)(Cn1cncn1)C1=NOC(COc2ccc(-n3cccn3)cc2)C1 (single isomer, unassigned) [Compound 28] | 0
CCC(C)(C)C(O)(Cn1cncn1)C1=NOC(Cc2ccc(C(F)(F)F)cc2)C1 (single isomer, unassigned) [Compound 19] | 10
OC(Cn1cncn1)(C1=NOC(Cc2ccc(F)cc2)C1)c1ccc(Cl)cc1 (single isomer, unassigned) [Compound 200] | 16

Q: Any idea what Test E rating (% disease control) was measured for CC(C)(C)C(O)(Cn1cncn1)C1=NOC(COc2ccc(-n3cc(Cl)cn3)cc2)C1 (stereo not shown) ?
Ans: 0

Q: Any idea what Test E rating (% disease control) was measured for OC(Cn1cncn1)(C1=NOC(c2ccc(C(F)(F)F)cc2)C1)c1ccc(C(F)(F)F)cc1 (single isomer, unassigned) [Compound 154] ?
Ans: 1

Q: Any idea what Test E rating (% disease control) was measured for CC(C)(C)C(O)(Cn1cncn1)C1=NOC(CCc2ccc(C(F)(F)F)cc2)C1 (single isomer, unassigned) [Compound 14] ?
Ans: 4

Q: Any idea what Test E rating (% disease control) was measured for CC(C)(C)C(O)(Cn1cncn1)C1=NOC(COc2ccc3c(c2)OCO3)C1 (single isomer, unassigned) [Compound 45] ?
Ans: 0

Q: Any idea what Test E rating (% disease control) was measured for OC(Cn1cncn1)(C1=NOC(c2ccc(Cl)cc2)C1)C12CC3CC(CC(C3)C1)C2 (single isomer, unassigned) [Compound 39] ?
Ans: 18

Q: Any idea what Test E rating (% disease control) was measured for OC(Cn1cncn1)(C1=NOC(COc2ncc(Cl)cn2)C1)c1ccc(Cl)cc1 (single isomer, unassigned) [Compound 167] ?
Ans: 0

Q: Any idea what Test E rating (% disease control) was measured for CC(C)(C)CC1CC(C(O)(Cn2cncn2)c2ccc(Cl)cc2)=NO1 (single isomer, unassigned) [Compound 76] ?
Ans: 0

Q: Any idea what Test E rating (% disease control) was measured for OC(Cn1cncn1)(C1=NOC(COc2ccc(OCc3ccccc3)cc2)C1)c1ccc(Cl)cc1 (single isomer, unassigned) [Compound 70] ?
Ans: 0

Q: Any idea what Test E rating (% disease control) was measured for CC(C)(C)C(O)(Cn1cncn1)C1=NOC(CCc2ccc(Cl)cc2)C1 (single isomer, unassigned) [Compound 16] ?
Ans: 8

Q: Any idea what Test E rating (% disease control) was measured for OC(Cn1cncn1)(C1=NOC(c2ccc(Cl)cc2)C1)c1cccc(Oc2ccccc2)c1 (single isomer, unassigned) [Compound 110] ?
Ans: 72
